- Tested on: Vaccinia virus
- protocolSummary: Inhibitory activity against vaccinia virus (VV)
- Format: functional, organism-based
- experimentalContext: Orthopoxvirus vaccinia
quantity: EC50

Problem: Fill in the blank: the reported EC50 of "Nc1nc(N)c2ncn(CCOCP(=O)(O)O)c2n1" is ____.
Result: 20 µg/mL

Problem: Same again, this time with "CC(C)CCCCCOP(=O)(COCCn1cnc2c(O)nc(N)nc21)OCCCCCC(C)C"
Result: > 80 µg/mL

Problem: Same again, this time with "Nc1nc(Cl)nc2c1ncn2CCOCP(=O)(O)O"
Result: > 40 µg/mL

Problem: Same again, this time with "CC(C)CCCCCOP(=O)(COCCn1cnc2c(N)ncnc21)OCCCCCC(C)C"
Result: > 3.2 µg/mL

Problem: Same again, this time with "CC(C)CCCCCOP(=O)(COCCn1cnc2c(Cl)nc(N)nc21)OCCCCCC(C)C"
Result: > 16 µg/mL

Value source: ChEMBL document CHEMBL1132160
